Experimental Details: Cytotoxicity against human A549 cells assessed as cell viability at 1 uM by MTT assay relative to control
Format: cell-based
Condition Description: read-out: Activity
Result Type: viability at 1 µM (%)
Give just the number in %; leave the unit off.

Examples with answers:
{"columns": ["Molecule", "viability at 1 µM, %"],
 "data": [
  ["C=CCSc1nsc(NC(=O)Nc2ccc(Cl)cc2)n1", 98.1],
  ["COc1ccc(C2CNC(=O)C2)cc1OC1CCCC1 (centres undefined) [ROLIPRAM]", 114]
]}

Q: So what's the measured viability at 1 µM for this one? C#CCSc1nsc(NC(=O)Nc2ccc(Cl)c(C(F)(F)F)c2)n1
Result: 97.8

Q: Recorded viability at 1 µM for O[C@H]1CC[C@H](Nc2nc(-c3ccccc3)nc3[nH]ccc23)CC1 , please?
Result: 111

Q: // viability at 1 µM lookup, key: COc1ccc(C2CNC(=O)NC2)cc1O[C@@H]1C[C@H]2CC[C@H]1C2
Result: 104

Q: Could you share which viability at 1 µM value was measured for O=C(Nc1nc(SCCOc2ccccc2)ns1)Nc1ccc(F)cc1F ?
Result: 102

Q: Given the molecule CCCn1c(=O)[nH]c2nc(-c3ccc(S(=O)(=O)N4CCN(c5ccc(Cl)cc5)CC4)cc3)[nH]c2c1=O , what is its reported viability at 1 µM?
Result: 97.4

Q: Endpoint output: viability at 1 µM of C=CCSc1nsc(NC(=O)Nc2cccc(C(C)=O)c2)n1 . Value?
Result: 105

Q: Returns the measured viability at 1 µM for the input molecule. Input: CCCOc1cc([C@]2(C)CNC(=O)O2)ccc1OC [DAXALIPRAM]
Result: 106

Q: For the molecule shown here, COCCOc1ccc(N2CCN(CCn3ncc4c3nc(N)n3nc(-c5ccco5)nc43)CC2)cc1 [PRELADENANT] , give the reported viability at 1 µM.
Result: 104

Q: Suppose we examine the molecule C#CCSc1nsc(NC(=O)Nc2ccccc2Cl)n1 ; what viability at 1 µM value has been reported?
Result: 96.2

Q: Could you share which viability at 1 µM value was measured for Nc1nc(NCCc2ccc(O)cc2)nc2nc(-c3ccco3)nn12 [ZM-241385] ?
Result: 110

Q: Please give the measured viability at 1 µM for this molecule: COc1ccc([C@@H]2CNC(=O)C2)cc1OC1CCCC1 [(-)-ROLIPRAM]
Result: 97.1
